- Tested on: Pseudomonas fluorescens FW300-N2E2
- recorded-conditions: medium / electron acceptor: N2E2 LB/aerobic
property: IC50 growth inhibition

[[record]]
compound = "[O-][Cl+]O [Sodium Chlorite]"
observed_value = "0.0105 mM"

[[record]]
compound = "[F-].[Na+] [sodium fluoride]"
observed_value = "1.11 mM"

[[record]]
compound = "Cl.N [Ammonium chloride]"
observed_value = "372 mM"

[[record]]
compound = "[Cl][Fe]([Cl])[Cl] [Ferric chloride]"
observed_value = "> 50 mM"

[[record]]
compound = "O.O.[Cl][Cu][Cl] [copper (II) chloride dihydrate]"
observed_value = "> 5 mM"

[[record]]
compound = "[Cl-].[Na+] [Sodium Chloride]"
observed_value = "708 mM"

[[record]]
compound = "O=[Se](=O)([O-])[O-].[Na+].[Na+] [Sodium selenate]"
observed_value = "354 mM"

[[record]]
compound = "[Cl][Hg][Cl] [mercury (II) chloride]"
observed_value = "< 0.00244 mM"

[[record]]
compound = "[O-][Cl+3]([O-])([O-])O [Sodium perchlorate monohydrate]"
observed_value = "95 mM"

[[record]]
compound = "O.O.O.O.O.O.[Cl-].[Cl-].[Co+2] [Cobalt chloride hexahydrate]"
observed_value = "0.175 mM"

[[record]]
compound = "O=[N+]([O-])[O-].[Na+] [Sodium nitrate]"
observed_value = "354 mM"


====

List of IC50 growth inhibition values.
- Test system: Pseudomonas fluorescens FW300-N2E2
- recorded-conditions: medium / electron acceptor: N2E2 Glucose/aerobic 0.25xMinerals
property: IC50 growth inhibition (mM)

[[record]]
compound = "[Cl-].[Cs+] [Cesium chloride]"
property = "IC50 growth inhibition"
readout_unit = "mM"
qual = "<"
observed_value = 0.244

[[record]]
compound = "O=C(O)CN(CC(=O)O)CC(=O)O"
property = "IC50 growth inhibition"
readout_unit = "mM"
qual = "="
observed_value = 21.4

[[record]]
compound = "O.O.[Cl][Cu][Cl] [copper (II) chloride dihydrate]"
property = "IC50 growth inhibition"
readout_unit = "mM"
qual = "="
observed_value = 0.0767

[[record]]
compound = "[O-][Cl+2]([O-])O [Sodium Chlorate]"
property = "IC50 growth inhibition"
readout_unit = "mM"
qual = "="
observed_value = 8.75

[[record]]
compound = "O=S(O)(O)=S [Sodium thiosulfate]"
property = "IC50 growth inhibition"
readout_unit = "mM"
qual = ">"
observed_value = 500

[[record]]
compound = "CC(=O)[O-].[Tl+] [Thallium(I) acetate]"
property = "IC50 growth inhibition"
readout_unit = "mM"
qual = "<"
observed_value = 0.00244

[[record]]
compound = "[Cl-].[Rb+] [rubidium chloride]"
property = "IC50 growth inhibition"
readout_unit = "mM"
qual = "="
observed_value = 251

[[record]]
compound = "O.O.O.O.O.O.O.O.O.O.O=S(=O)([O-])[O-].[Na+].[Na+] [Sodium sulfate]"
property = "IC50 growth inhibition"
readout_unit = "mM"
qual = ">"
observed_value = 500

[[record]]
compound = "[O-][I+3]([O-])([O-])O [Sodium periodate]"
property = "IC50 growth inhibition"
readout_unit = "mM"
qual = "="
observed_value = 2.35

[[record]]
compound = "O.O=[Te](=O)([O-])[O-].[K+].[K+] [potassium tellurate hydrate]"
property = "IC50 growth inhibition"
readout_unit = "mM"
qual = "="
observed_value = 0.0753

[[record]]
compound = "O=P([O-])(O)O.[Na+] [Sodium phosphate monobasic monohydrate]"
property = "IC50 growth inhibition"
readout_unit = "mM"
qual = ">"
observed_value = 500


====

- Test system: Pseudomonas fluorescens FW300-N2E2
- recorded-conditions: medium / electron acceptor: N2E2 R2A/aerobic
Where a name gives a salt, the structure may show the parent alone.
# label = criterion met if IC50 growth inhibition < 2000 µM else criterion not met

[[record]]
compound = "NO [Hydroxylamine hydrochloride]"
answer_label = "criterion met"

[[record]]
compound = "O=P(O)(O)OP(=O)(O)O [Sodium pyrophosphate dibasic]"
answer_label = "criterion not met"

[[record]]
compound = "O=[N+]([O-])[O-].[Na+] [Sodium nitrate]"
answer_label = "criterion not met"

[[record]]
compound = "O=P[O-].[Na+] [Sodium hypophosphite monohydrate]"
answer_label = "criterion not met"

[[record]]
compound = "O.O.O.O.O.O.[Cl][Cr]([Cl])[Cl] [Chromium(III) Chloride Hexahydrate]"
answer_label = "criterion met"

[[record]]
compound = "[Cl-].[Cs+] [Cesium chloride]"
answer_label = "criterion met"

[[record]]
compound = "O.O.O.O.O.O.O.O.O.O.O=S(=O)([O-])[O-].[Na+].[Na+] [Sodium sulfate]"
answer_label = "criterion not met"

[[record]]
compound = "O.O.[Cl][Cu][Cl] [copper (II) chloride dihydrate]"
answer_label = "criterion met"

[[record]]
compound = "CC(=O)[O-].[Tl+] [Thallium(I) acetate]"
answer_label = "criterion met"

[[record]]
compound = "O.O=[Te]([O-])[O-].[K+].[K+] [Potassium tellurite hydrate]"
answer_label = "criterion met"


====

List of IC50 growth inhibition values.
- System: Pseudomonas fluorescens FW300-N2E2
- recorded-conditions: medium / electron acceptor: N2E2 R2A/aerobic
property: IC50 growth inhibition (mM)

[[record]]
compound = "[Cl-].[K+] [Potassium Chloride]"
property = "IC50 growth inhibition"
readout_unit = "mM"
qual = ">"
observed_value = 500

[[record]]
compound = "O.O.O.O.O.O.[Cl][Ni][Cl] [Nickel (II) chloride hexahydrate]"
property = "IC50 growth inhibition"
readout_unit = "mM"
qual = "="
observed_value = 0.221

[[record]]
compound = "[Cl-].[Cl-].[Sr+2] [Strontium chloride]"
property = "IC50 growth inhibition"
readout_unit = "mM"
qual = "="
observed_value = 261

[[record]]
compound = "[I-].[Na+] [sodium iodide]"
property = "IC50 growth inhibition"
readout_unit = "mM"
qual = "="
observed_value = 237

[[record]]
compound = "Cl.N [Ammonium chloride]"
property = "IC50 growth inhibition"
readout_unit = "mM"
qual = ">"
observed_value = 500

[[record]]
compound = "O.O.O.O.[Cl][Mn][Cl] [Manganese (II) chloride tetrahydrate]"
property = "IC50 growth inhibition"
readout_unit = "mM"
qual = "="
observed_value = 1.45

[[record]]
compound = "O.O.O.O.O.O.[Cl-].[Cl-].[Co+2] [Cobalt chloride hexahydrate]"
property = "IC50 growth inhibition"
readout_unit = "mM"
qual = "="
observed_value = 0.0138

[[record]]
compound = "[Cl][Ag] [silver chloride]"
property = "IC50 growth inhibition"
readout_unit = "mM"
qual = ">"
observed_value = 0.5

[[record]]
compound = "O.[Cl-].[Li+] [Lithium chloride hydrate]"
property = "IC50 growth inhibition"
readout_unit = "mM"
qual = "="
observed_value = 176

[[record]]
compound = "O=C(O)CN(CC(=O)O)CC(=O)O"
property = "IC50 growth inhibition"
readout_unit = "mM"
qual = "="
observed_value = 9.21

[[record]]
compound = "[O-][Cl+3]([O-])([O-])O [Sodium perchlorate monohydrate]"
property = "IC50 growth inhibition"
readout_unit = "mM"
qual = "="
observed_value = 89.4


====

- System: Pseudomonas fluorescens FW300-N2E2
- recorded-conditions: medium / electron acceptor: N2E2 LB/aerobic
# label = 1 if IC50 growth inhibition < 300 mM else -1

[[record]]
compound = "O=S(O)(O)=S [Sodium thiosulfate]"
answer_label = -1

[[record]]
compound = "O.O.O.O.O.O.[Cl-].[Cl-].[Mg+2] [Magnesium chloride hexahydrate]"
answer_label = -1

[[record]]
compound = "OP(O)O [Sodium phosphite dibasic pentahydrate]"
answer_label = -1

[[record]]
compound = "[Cl-].[Rb+] [rubidium chloride]"
answer_label = -1

[[record]]
compound = "O.O.[Na+].[Na+].[O]=[W](=[O])([O-])[O-] [Sodium tungstate dihydrate]"
answer_label = 1

[[record]]
compound = "CC(=O)[O-].[Tl+] [Thallium(I) acetate]"
answer_label = 1

[[record]]
compound = "[Cl][Ga]([Cl])[Cl] [Gallium(III)chloride]"
answer_label = 1

[[record]]
compound = "O=NO [Sodium nitrite]"
answer_label = 1

[[record]]
compound = "[Ce+3].[Cl-].[Cl-].[Cl-] [Cerium(III) chloride]"
answer_label = 1


====

- Test system: Pseudomonas fluorescens FW300-N2E2
- recorded-conditions: medium / electron acceptor: N2E2 R2A/aerobic
property: IC50 growth inhibition (µM)

[[record]]
compound = "[Cl][Hg][Cl] [mercury (II) chloride]"
readout_unit = "µM"
qual = "<"
observed_value = 2.44

[[record]]
compound = "O=C(O)C[C@H](NCCN[C@@H](CC(=O)O)C(=O)O)C(=O)O"
readout_unit = "µM"
qual = "<"
observed_value = 122

[[record]]
compound = "O.O.O.O.O.O.[Al+3].[Cl-].[Cl-].[Cl-] [Aluminum chloride hydrate]"
readout_unit = "µM"
qual = "="
observed_value = 227

[[record]]
compound = "[O-][I+3]([O-])([O-])O [Sodium periodate]"
readout_unit = "µM"
qual = "="
observed_value = 772

[[record]]
compound = "OCl [Sodium hypochlorite]"
readout_unit = "µM"
qual = "="
observed_value = 3320

[[record]]
compound = "O=[Se]([O-])[O-].[Na+].[Na+] [Sodium selenite pentahydrate]"
readout_unit = "µM"
qual = "<"
observed_value = 244

[[record]]
compound = "O=S([O-])[O-].[Na+].[Na+] [sodium sulfite]"
readout_unit = "µM"
qual = "="
observed_value = 31700

[[record]]
compound = "[F-].[Na+] [sodium fluoride]"
readout_unit = "µM"
qual = "="
observed_value = 2900

[[record]]
compound = "[K+].[OH-].[OH-].[OH-].[OH-].[OH-].[OH-].[Sb+3] [potassium hexahydroxoantimonate]"
readout_unit = "µM"
qual = ">"
observed_value = 5000

[[record]]
compound = "O.O.O.O.O=S(=O)([O-])[O-].[Be+2] [beryllium sulfate tetrahydrate]"
readout_unit = "µM"
qual = ">"
observed_value = 500000

